test: in vitro; conditions: human, A549 cells

- COMPOUND: "CC/C(=C(/c1ccc(NC(=O)CN2CCOCC2)cc1)c1ccc(OCCN2CCOCC2)cc1)c1ccccc1"
  VALUE OPERATOR: "="
  selectivity ratio: 13
- COMPOUND: "CC/C(=C(/c1ccc(NCCN2CCOCC2)cc1)c1ccc(OCCN2CCOCC2)cc1)c1ccccc1"
  VALUE OPERATOR: "<"
  selectivity ratio: 2
- COMPOUND: "CC/C(=C(/c1ccc(NC(=O)C2CCN(C3CCN(C)CC3)CC2)cc1)c1ccc(OCCN2CCCC2)cc1)c1ccccc1"
  VALUE OPERATOR: "="
  selectivity ratio: 16
- COMPOUND: "CCC(=C(c1ccc(OCCN2CCCC2)cc1)c1ccc(OCCN2CCCC2)cc1)c1ccccc1"
  VALUE OPERATOR: "="
  selectivity ratio: 13
- COMPOUND: "Cc1c(-c2ccc(O)cc2)n(Cc2ccc(OCCN3CCCCCC3)cc2)c2ccc(O)cc12"
  VALUE OPERATOR: "="
  selectivity ratio: 6
- COMPOUND: "CN(C)CCOc1ccc(/C(=C(/CCCl)c2ccccc2)c2ccccc2)cc1"
  VALUE OPERATOR: "="
  selectivity ratio: 6
- COMPOUND: "Cc1cc(F)cc(C)c1C(=O)c1sc2cc(O)ccc2c1Oc1ccc(OCCN2CC(CF)C2)cc1"
  VALUE OPERATOR: "="
  selectivity ratio: 15
- COMPOUND: "CCNCCc1ccc(CN(CC)c2cc(OC)ccc2[C@@H]2CCc3cc(O)ccc3C2)cc1"
  VALUE OPERATOR: "="
  selectivity ratio: 8
- COMPOUND: "OCCOc1ccc(/C(=C(/CCCl)c2ccccc2)c2ccccc2)cc1"
  VALUE OPERATOR: "<"
  selectivity ratio: 1
- COMPOUND: "CC/C(=C(/c1ccc(NC(=O)CN2CCN(C)CC2)cc1)c1ccc(OCCN2CCCC2)cc1)c1ccccc1"
  VALUE OPERATOR: "="
  selectivity ratio: 7
- COMPOUND: "CC/C(=C(/c1ccc(NC(=O)CC2CCN(C)CC2)cc1)c1ccc(OCCN2CCCC2)cc1)c1ccccc1"
  VALUE OPERATOR: "="
  selectivity ratio: 33

----------
test system: Marburgvirus; assay: microbe, parasite or virus in culture; settings: Orthomarburgvirus, Musoke, A549, 48 h
pIC50: −log10 of the molar value.
Quick reference for pIC50 among some compounds
ASSAY ENDPOINT: pIC50

- COMPOUND: "CC/C(=C(/c1ccc(NCCN2CCOCC2)cc1)c1ccc(OCCN2CCOCC2)cc1)c1ccccc1"
  ASSAY VALUE: 5.66
- COMPOUND: "Cc1cc(F)cc(C)c1C(=O)c1sc2cc(O)ccc2c1Oc1ccc(OCCN2CC(CF)C2)cc1"
  ASSAY VALUE: 5.73
- COMPOUND: "Cc1ccccc1C(=O)c1sc2cc(O)ccc2c1Oc1ccc(OCCN2CC(CF)C2)cc1"
  ASSAY VALUE: 5.41
- COMPOUND: "CCC(c1ccccc1)C(O)(c1ccc(OCCN(C)C)cc1)c1cccc(O)c1 (centres undefined)"
  ASSAY VALUE: 5.36
- COMPOUND: "CC/C(=C(/c1ccc(NC(=O)CC2CCN(C)CC2)cc1)c1ccc(OCCN2CCCC2)cc1)c1ccccc1"
  ASSAY VALUE: 6.21
- COMPOUND: "CC/C(=C(/c1ccc(NC(=O)CN2CCOCC2)cc1)c1ccc(OCCN2CCCC2)cc1)c1ccccc1"
  ASSAY VALUE: 5.92
- COMPOUND: "CC/C(=C(/c1ccc(NC(=O)N2CCN(C)CC2)cc1)c1ccc(OCCN2CCCC2)cc1)c1ccccc1"
  ASSAY VALUE: 6.12
- COMPOUND: "Oc1ccc2c(Oc3ccc(OCCN4CCCCC4)cc3)c(-c3ccc(F)cc3)sc2c1"
  ASSAY VALUE: 5.69
- COMPOUND: "CCNCCc1ccc(CN(CC)c2cc(OC)ccc2[C@@H]2CCc3cc(O)ccc3C2)cc1"
  ASSAY VALUE: 5.89

----------
assay: in vitro; conditions: human, A549 cells
Quick reference for selectivity ratio among some molecules

- MOLECULE: "COc1ccc2c(Oc3ccc(OCCN4CCCCC4)cc3)c(-c3ccc(Br)cc3)sc2c1"
  selectivity ratio: 37
- MOLECULE: "COc1ccc2c(Oc3ccc(OCCN4CCCCC4)cc3)c(-c3ccc(Br)cc3)[s+]([O-])c2c1 (centres undefined)"
  selectivity ratio: "> 55"
- MOLECULE: "COc1ccc(-c2sc3cc(OC)ccc3c2Oc2ccc(OCCN3CCC(CCNC(=O)CCCCNC(=O)OC(C)(C)C)CC3)cc2)cc1"
  selectivity ratio: 76
- MOLECULE: "COc1ccc2c(Oc3ccc(OCCN4CCCCC4)cc3)c(-c3ccccc3)sc2c1"
  selectivity ratio: 8
- MOLECULE: "CC/C(=C(/c1ccc(NCCN2CCCC2)cc1)c1ccc(OCCN2CCCC2)cc1)c1ccccc1"
  selectivity ratio: 18
- MOLECULE: "Nc1ccc(-c2sc3cc(O)ccc3c2Oc2ccc(OCCN3CCCCC3)cc2)cc1"
  selectivity ratio: "> 69"
- MOLECULE: "Cc1c(-c2ccc(O)cc2)nn(-c2ccc(O)cc2)c1-c1ccc(OCCN2CCCCC2)cc1"
  selectivity ratio: 12
- MOLECULE: "CC/C(=C(/c1ccc(NC(=O)CN2CCOCC2)cc1)c1ccc(OCCN2CCCC2)cc1)c1ccccc1"
  selectivity ratio: 14
- MOLECULE: "COc1ccc2c(c1)CCC(c1ccccc1)=C2c1ccc(OCCN2CCCC2)cc1"
  selectivity ratio: 6

----------
tested on: Zaire ebolavirus; assay: microbe, parasite or virus in culture; conditions: Mayinga, Zaire, 1976, A549, 48 h
Flag rule - IC50 less than 200 nM flags Y; the remaining entries get N.

- MOLECULE: "CC/C(=C(/c1ccc(NC(=O)C2CCN(C3CCN(C)CC3)CC2)cc1)c1ccc(OCCN2CCCC2)cc1)c1ccccc1"
  ASSIGNED CATEGORY: "Y"
- MOLECULE: "CC/C(=C(/c1ccc(NCCN2CCOCC2)cc1)c1ccc(OCCN2CCOCC2)cc1)c1ccccc1"
  ASSIGNED CATEGORY: "N"
- MOLECULE: "Cc1cc(F)cc(C)c1C(=O)c1sc2cc(O)ccc2c1Oc1ccc(OCCN2CC(CF)C2)cc1"
  ASSIGNED CATEGORY: "N"
- MOLECULE: "Cc1c(-c2ccc(O)cc2)n(Cc2ccc(OCCN3CCCCCC3)cc2)c2ccc(O)cc12"
  ASSIGNED CATEGORY: "N"
- MOLECULE: "CC/C(=C(/c1ccc(NC(=O)CN2CCOCC2)cc1)c1ccc(OCCN2CCOCC2)cc1)c1ccccc1"
  ASSIGNED CATEGORY: "N"
- MOLECULE: "CCC(=C(c1ccc(OCCN2CCCC2)cc1)c1ccc(OCCN2CCCC2)cc1)c1ccccc1"
  ASSIGNED CATEGORY: "Y"
- MOLECULE: "COc1ccc2c(c1)CCC(c1ccccc1)=C2c1ccc(OCCN2CCCC2)cc1"
  ASSIGNED CATEGORY: "Y"
- MOLECULE: "Oc1ccc2c(Oc3ccc(OCCN4CCCCC4)cc3)c(-c3ccc(F)cc3)sc2c1"
  ASSIGNED CATEGORY: "N"
- MOLECULE: "COc1ccc2c(Oc3ccc(OCCN4CCCCC4)cc3)c(-c3ccc(Br)cc3)[s+]([O-])c2c1 (centres undefined)"
  ASSIGNED CATEGORY: "N"
- MOLECULE: "CC/C(=C(/c1ccc(NC(=O)C2CCN(C)C2)cc1)c1ccc(OCCN2CCCC2)cc1)c1ccccc1 (centres undefined)"
  ASSIGNED CATEGORY: "Y"
- MOLECULE: "COc1ccc(-c2sc3cc(OC)ccc3c2Oc2ccc(OCCN3CCC(CCNC(=O)CCCCNC(=O)OC(C)(C)C)CC3)cc2)cc1"
  ASSIGNED CATEGORY: "N"
- MOLECULE: "CC/C(=C(/c1ccc(NC(=O)CC2CCN(C)CC2)cc1)c1ccc(OCCN2CCCC2)cc1)c1ccccc1"
  ASSIGNED CATEGORY: "Y"
- MOLECULE: "COc1ccc2c(Oc3ccc(OCCN4CCCCC4)cc3)c(-c3ccc(Br)cc3)sc2c1"
  ASSIGNED CATEGORY: "N"
- MOLECULE: "Nc1ccc(-c2sc3cc(O)ccc3c2Oc2ccc(OCCN3CCCCC3)cc2)cc1"
  ASSIGNED CATEGORY: "Y"
- MOLECULE: "CN(C)CCOc1ccc(/C(=C(/CCCl)c2ccccc2)c2ccccc2)cc1"
  ASSIGNED CATEGORY: "Y"
- MOLECULE: "CC/C(=C(/c1ccc(NC(=O)N2CCN(C)CC2)cc1)c1ccc(OCCN2CCCC2)cc1)c1ccccc1"
  ASSIGNED CATEGORY: "Y"
- MOLECULE: "COc1ccc2c(Oc3ccc(OCCN4CCCCC4)cc3)c(-c3ccccc3)sc2c1"
  ASSIGNED CATEGORY: "N"
- MOLECULE: "OCCOc1ccc(/C(=C(/CCCl)c2ccccc2)c2ccccc2)cc1"
  ASSIGNED CATEGORY: "N"
- MOLECULE: "Cc1c(-c2ccc(O)cc2)nn(-c2ccc(O)cc2)c1-c1ccc(OCCN2CCCCC2)cc1"
  ASSIGNED CATEGORY: "N"
- MOLECULE: "CCC(c1ccccc1)C(O)(c1ccc(OCCN(C)C)cc1)c1cccc(O)c1 (centres undefined)"
  ASSIGNED CATEGORY: "N"
- MOLECULE: "Oc1ccc2c(Oc3ccc(OCCN4CCCCC4)cc3)c(-c3ccccc3)sc2c1"
  ASSIGNED CATEGORY: "N"
- MOLECULE: "CC/C(=C(/c1ccc(NC(=O)CN2CCOCC2)cc1)c1ccc(OCCN2CCCC2)cc1)c1ccccc1"
  ASSIGNED CATEGORY: "N"
- MOLECULE: "CCNCCc1ccc(CN(CC)c2cc(OC)ccc2[C@@H]2CCc3cc(O)ccc3C2)cc1"
  ASSIGNED CATEGORY: "N"
- MOLECULE: "CC/C(=C(/c1ccc(NC(=O)C2CCN(C)CC2)cc1)c1ccc(OCCN2CCCC2)cc1)c1ccccc1"
  ASSIGNED CATEGORY: "Y"
- MOLECULE: "CC/C(=C(/c1ccc(N)cc1)c1ccc(OCCN2CCCC2)cc1)c1ccccc1"
  ASSIGNED CATEGORY: "Y"
- MOLECULE: "Cc1ccccc1C(=O)c1sc2cc(O)ccc2c1Oc1ccc(OCCN2CC(CF)C2)cc1"
  ASSIGNED CATEGORY: "N"
- MOLECULE: "CC1=C(c2ccc(O)cc2)[C@H](c2ccc(OCCN3CCCCC3)cc2)Oc2ccccc21"
  ASSIGNED CATEGORY: "N"
- MOLECULE: "CC/C(=C(/c1ccc(NC(=O)CN2CCN(C)CC2)cc1)c1ccc(OCCN2CCCC2)cc1)c1ccccc1"
  ASSIGNED CATEGORY: "Y"
- MOLECULE: "CC/C(=C(/c1ccc(NCCN2CCCC2)cc1)c1ccc(OCCN2CCCC2)cc1)c1ccccc1"
  ASSIGNED CATEGORY: "N"
